All values here come from patent US20190359687A1.

# SYSTEM NAME: T1, Cynomolgus monkey glycophorin A on Cynomolgus monkey red blood cells (Cynomolgus monkey)
# T1 construct: whole, on cells; also called Cyno RBC; Cyno GPA
# PROCEDURE SUMMARY: FACS, RBC Cy01
PROPERTY LABEL: fluorescence intensity
One number for each entry.

BINDER	fluorescence intensity
Hu6C12-20 (antibody, V domains shown, IgG format; VH.1c + Vk.1b) VH: EVQLVQSGAEVKKPGASVKVSCKASGYTFTTYTIHWVRQAPGQGLEWMGYINPSSDYTRYNPKFKDRVTMTTDTSTSTAYMELRSLRSDDTAVYYCQTGTRDYWGQGTTVTVSS VL: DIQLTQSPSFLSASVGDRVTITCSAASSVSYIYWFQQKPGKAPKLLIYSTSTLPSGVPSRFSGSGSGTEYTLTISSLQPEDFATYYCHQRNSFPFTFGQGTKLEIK	1070

Could you tell me fluorescence intensity for each of these binders? They are listed below.
1. Hu6C12-18 (antibody, V domains shown, IgG format; VH.1a + Vk.1b) VH: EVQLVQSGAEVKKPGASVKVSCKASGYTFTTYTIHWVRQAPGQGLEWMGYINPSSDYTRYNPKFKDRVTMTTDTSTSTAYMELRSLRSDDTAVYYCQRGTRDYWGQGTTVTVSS VL: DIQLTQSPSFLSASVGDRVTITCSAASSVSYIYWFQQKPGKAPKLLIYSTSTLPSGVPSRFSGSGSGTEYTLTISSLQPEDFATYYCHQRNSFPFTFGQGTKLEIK
2. Hu6C12-21 (antibody, V domains shown, IgG format; VH.1d + Vk.1b) VH: EVQLVQSGAEVKKPGASVKVSCKASGYTFTTYTIHWVRQAPGQGLEWMGYINPSSDYTRYNPKFKDRVTLTTDTSTSTAYMELRSLRSDDTAVYYCQRGTRDYWGQGTTVTVSS VL: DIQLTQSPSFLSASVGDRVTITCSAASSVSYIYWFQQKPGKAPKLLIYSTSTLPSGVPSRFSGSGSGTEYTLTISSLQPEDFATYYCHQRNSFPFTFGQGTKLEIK
3. Hu6C12-22 (antibody, V domains shown, IgG format; VH.1e + Vk.1b) VH: EVQLVQSGAEVKKPGASVKVSCKASGYTFTTYTIHWVRQAPGQGLEWMGYINPSSDYTRYNPKFKDRVTLTTDTSTSTAYMELRSLRSDDTAVYYCATGTRDYWGQGTTVTVSS VL: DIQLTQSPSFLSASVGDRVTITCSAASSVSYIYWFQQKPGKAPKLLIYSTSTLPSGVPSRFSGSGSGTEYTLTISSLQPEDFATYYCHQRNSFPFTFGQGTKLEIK

[741, 908, 991]

# fluorescence intensity of Hu6C12-5 (antibody, V domains shown, IgG format; VH.1e + Vk.1) VH: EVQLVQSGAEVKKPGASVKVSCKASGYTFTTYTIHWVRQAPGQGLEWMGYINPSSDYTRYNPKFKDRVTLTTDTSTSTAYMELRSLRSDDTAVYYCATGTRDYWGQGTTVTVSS VL: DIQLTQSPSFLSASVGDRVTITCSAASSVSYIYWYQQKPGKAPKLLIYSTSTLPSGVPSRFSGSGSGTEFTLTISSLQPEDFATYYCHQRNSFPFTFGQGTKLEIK = 1070
